Where do the numbers come from? From ChEMBL document CHEMBL3399978.

target_under_test: 11-beta-hydroxysteroid dehydrogenase 1 (Homo sapiens)
test_summary: Inhibition of human 11beta-HSD1 expressed in HEK293 cells using NADPH assessed as conversion of cortisone to cortisol by cell-based assay
measured_property: IC50 (nM)

mol_smiles	IC50 / nM
C[C@H]1CN(c2ccc(S(C)(=O)=O)cc2)CCN1c1cccc(C(=O)N[C@H]2C3CC4CC2C[C@](O)(C4)C3)n1	6.8
CS(=O)(=O)c1ccc(N2CCN(c3cccc(C(=O)N[C@H]4C5CC6CC4C[C@](O)(C6)C5)n3)CC2)cc1	3.9

A: C[C@@H]1CN(c2ccc(C(C)(C)O)cc2)CCN1c1cccc(C(=O)N[C@H]2C3CC4CC2C[C@](O)(C4)C3)n1
B: C[C@@H]1CN(c2ccc(S(C)(=O)=O)cc2)CCN1c1cccc(C(=O)N[C@H]2C3CC4CC2C[C@](O)(C4)C3)n1
Given A and B , report the one with the higher recorded IC50. Output the label that corresponds to your choice.
A

* * *

test_summary: Metabolic stability in mouse liver microsomes assessed as compound remaining after 30 mins
Type: ADME
reported_conditions: read-out: Stability
measured_property: remaining at 0.5 h (%)

mol_smiles	measured_property	meas_value
C[C@@H]1CN(c2ccc(C(N)=O)cc2)CCN1c1cccc(C(=O)N[C@H]2C3CC4CC2C[C@](O)(C4)C3)n1	remaining at 0.5 h	57
NC(=O)c1ccc(N2CCN(c3cccc(C(=O)N[C@H]4C5CC6CC4C[C@](O)(C6)C5)n3)CC2)cc1	remaining at 0.5 h	65

A: CNC(=O)c1ccc(N2CCN(c3cccc(C(=O)N[C@H]4C5CC6CC4C[C@](O)(C6)C5)n3)[C@H](C)C2)cc1
B: C[C@@H]1CN(c2ccc(S(C)(=O)=O)cc2)CCN1c1cccc(C(=O)N[C@H]2C3CC4CC2C[C@](O)(C4)C3)n1
Of A versus B , which is the one with smaller reported remaining at 0.5 h? Output the label that corresponds to your choice.
A

* * *

target_under_test: 11-beta-hydroxysteroid dehydrogenase 1 (Homo sapiens, UniProt P28845)
Sequence (P28845 whole entry): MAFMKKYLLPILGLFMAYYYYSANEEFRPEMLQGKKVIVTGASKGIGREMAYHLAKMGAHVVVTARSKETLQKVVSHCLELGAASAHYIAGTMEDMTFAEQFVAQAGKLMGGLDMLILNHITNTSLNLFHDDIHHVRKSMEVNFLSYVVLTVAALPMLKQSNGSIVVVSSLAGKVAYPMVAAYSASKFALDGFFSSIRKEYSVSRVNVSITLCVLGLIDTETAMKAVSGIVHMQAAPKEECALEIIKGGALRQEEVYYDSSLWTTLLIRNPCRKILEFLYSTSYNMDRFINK
test_summary: Inhibition of human 11beta-HSD1 using microsomal fraction and NADPH assessed as conversion of cortisone to cortisol by biochemical enzyme assay
measured_property: IC50 (nM)

Before answering, review these 2 worked examples.
mol_smiles	IC50 / nM
C[C@H]1CN(c2ccc(S(C)(=O)=O)cc2)CCN1c1cccc(C(=O)N[C@H]2C3CC4CC2C[C@](O)(C4)C3)n1	4.2
CS(=O)(=O)c1ccc(N2CCN(c3cccc(C(=O)N[C@H]4C5CC6CC4C[C@](O)(C6)C5)n3)CC2)cc1	1.6

1: C[C@@H]1CN(c2ccc(C(C)(C)O)cc2)CCN1c1cccc(C(=O)N[C@H]2C3CC4CC2C[C@](O)(C4)C3)n1
2: C[C@@H]1CN(c2ccc(S(C)(=O)=O)cc2)CCN1c1cccc(C(=O)N[C@H]2C3CC4CC2C[C@](O)(C4)C3)n1
Of 1 versus 2 , which is the one with smaller reported IC50? Output the label that corresponds to your choice.
2

* * *

test_summary: Metabolic stability in mouse liver microsomes assessed as compound remaining after 30 mins
Format: ADME
reported_conditions: read-out: Stability
measured_property: remaining at 0.5 h (%)

mol_smiles	unit_of_measurement	remaining at 0.5 h
O=C(N[C@H]1C2CC3CC1C[C@](O)(C3)C2)c1cccc(N2CCN(c3ccc(F)cc3)CC2)n1	%	73
Cc1ccc(N2CCN(c3cccc(C(=O)N[C@H]4C5CC6CC4C[C@](O)(C6)C5)n3)CC2)cc1	%	74
O=C(N[C@H]1C2CC3CC1C[C@](O)(C3)C2)c1cccc(N2CCN(c3ccc(Cl)cc3)CC2)n1	%	69
COc1ccc(N2CCN(c3cccc(C(=O)N[C@H]4C5CC6CC4C[C@](O)(C6)C5)n3)[C@H](C)C2)cc1	%	80
